Target Of Assay: T1, human MSLN-R1-his protein (human, UniProt Q13421 296-390)
T1 construct: Made in HEK293E cells, purified on nickel column; also called hMSLN-R1-his; human MSLN-R1 protein; not shown: His tag
T1 chain: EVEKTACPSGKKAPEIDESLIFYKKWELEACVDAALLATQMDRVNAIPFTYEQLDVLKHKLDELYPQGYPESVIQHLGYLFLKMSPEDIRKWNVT
Test Summary: ELISA, coated antigen, antibody 200 nM
Measured Parameter: OD450

Enquiry: Please report OD450 for the following binder: S009-F7.53.2 chimeric antibody (antibody, human IgG1, kappa, V domains shown, Human-murine chimeric antibody, human IgG1/kappa constant regions) VH: EVQLQQSGPELVKPGASVKIPCKTSGYTFTDYNMDWVKQSHGKSLEWIGDINPNTDGAIYNQKFQNKATLTVDKSSSTAYMELRSLTSEDTAVYYCTRRKLGRKFFDYWGQGTTLTVSS VL: QIVLTQSPAIMSASPGEQVTMTCSASSSVGYMNWYQQKPGSSPRLLIYDTSNLASGVPVHFSGSGSGTSYSLTISRMEAAFAATYYCQQWYVYPYTFGGGTKLEIKR
Return: 0.07

Enquiry: Please report OD450 for the following binder: S009-F7.30.5 chimeric antibody (antibody, human IgG1, kappa, V domains shown, Human-murine chimeric antibody, human IgG1/kappa constant regions) VH: QVQLQQPKTELVKPGASVKLSCKASGYIFTTYWMHWVKQRPGQGLEWIGNVNPSNGGTMYNEKFERRATLTVDKSSSTADMQLSSLTSEDSAVYYCVPHYIGSRPGFAYWGQGTLVTVSG VL: DIVMTQSQKFMSTSVGDRVSVTCKASQNVGTNVAWYQHKPGQSPKALLYSASYRYSGVPDRFTGSGSGTDFTLTITNVQSEDLAEYFCQQYNSYPLTFGGGTKLEIKR
Return: 0.32

Enquiry: Please report OD450 for the following binder: S009-F7.26.15 chimeric antibody (antibody, human IgG1, kappa, V domains shown, Human-murine chimeric antibody, human IgG1/kappa constant regions) VH: DVQLQESGPGLVKPSQTVFLTCTVTGISITTGNYRWSWIRQFPGNKLEWIGYIYYTGFITYNPSLTSRTTITRDTPKNQFFLEMKSLTAEDTATYYCARDDYDYDVFAYWGQGTLVTVSA VL: DIQMTQSPASLSASVGETVTITCRASGNIHNYLAWYHQKQGKSPQFLVYKAKTLADGVPSRFSGSGSGTQYSLKINRLQPEDFGSYYCQHFLSIPLTFGAGTKLELKR
Return: 0.12

Enquiry: Please report OD450 for the following binder: S009-F7.23.19 chimeric antibody (antibody, human IgG1, kappa, V domains shown, Human-murine chimeric antibody, human IgG1/kappa constant regions) VH: EVKLVESGGGLVQPGGSLSLSCAASGFTFTDYYMSWVRQPPGKALEWLGFIRSKANAYTTEYSASVKGRFTISRDNSQSILYLQMNDLRAEDSATYYCARYYYYGSGYVWYFDVWGTGTTVTVSS VL: DIVMTQSQKFMSTSVGDRVSVTCKASQSVGTNVAWYQQKPGQFPKALIYSASYRYSGVPDRFTGSGSGTDFTLTIINVQSEDLAEYFCQQYNSYPLTFGAGTKLELKR
Return: 0.08

Enquiry: Please report OD450 for the following binder: S009-F7.65.13 chimeric antibody (antibody, human IgG1, kappa, V domains shown, Human-murine chimeric antibody, human IgG1/kappa constant regions) VH: EVQLQQSGPELVKPGTSVKILCKASGDTFTAYNMDWVKQRHGQSLEWIGDINPNTDSTIYNQKFEGKAILTVDKSSSTAYMELRSLTSEDTAVYYCARRKLGRGYFDYWGQGTTLTVSS VL: QIVLTQSPAIMSASPGEKVTMTCSVNLSVRYIYWYQQKPGSSPRLLIHDTSNLASGVPVRFSGSGSGTSYSLTISRMEAEDAATYYCQQWSSFPYTFGGGTKLEIKR
Return: 0.08
